Test system: MDA-MB-435
Outcomes: yes = active, no = inactive

1) COc1cc(C2Cc3ncccc3-c3[nH]c(=O)c4cccnc4c32)cc(OC)c1OC (stereo not drawn); yes
2) CCN(Cc1ccc(C)cc1)c1ccc(CO)c(Cl)c1; no
3) CC(=O)Nc1ccc2c(c1)C(c1ccccc1Cl)=Nc1c(n[nH]c1C)N2; no
4) CC(C)(C)c1ccc(S(=O)(=O)Oc2ccc3c4c(c(=O)oc3c2)CCCCC4)cc1; no
5) O=c1c2c(=NCCN3CCCC3)cc3c(=O)n(CCCN4CCOCC4)c(=O)c4c(-c5ccc(CN6CCCC6)cc5)cc(c(O)n1CCCN1CCOCC1)c2c4-3; yes
6) O=c1[nH]c2ccccc2c2ccccc12; no
7) CC(N)C(Cc1ccc(Cl)cc1)c1ccc(Cl)cc1 (stereo not drawn); no
8) CCC(C)[C@H]1O[C@]2(CC[C@@H]1C)C[C@@H]1C[C@@H](C/C=C(\C)[C@@H](OC3C[C@H](OC)C(O[C@H]4C[C@H](OC)[C@@H](O)[C@H](C)O4)[C@H](C)O3)[C@@H](C)/C=C/C=C3\CO[C@@H]4[C@H](O)C(C)=C[C@@H](C(=O)O1)[C@]34O)O2 (stereo partly drawn); no

###

Test system: SK-OV-3 ovarian
Test: NCI tumour cell line growth inhibition, 48 h
Measured TGI values are reported for all entries that follow.
Assay metric: TGI

1. CC(C)c1[nH]nc(C(N)=O)c1N=NN(C)C; > 100 µM
2. COCCNCc1ccc(-c2cc3nccc(Oc4ccc(NC(=S)NC(=O)Cc5ccc(F)cc5)cc4F)c3s2)nc1; 34.4 µM
3. C[C@@H](NC1CCCC[C@H]1O)c1ccccc1 (stereo not given in full); > 100 µM
4. COc1ccc(N=N/C(=N/NC(=O)c2ccc(C)cc2)c2ccc(N(CCC#N)CCC#N)cc2OC)cc1; > 100 µM
5. O=c1[nH]c2ccccc2c(=O)n1/N=C/c1ccc(O)cc1; > 100 µM

###

Measured TGI values are reported for all entries that follow.
System: HOP-62 NSCLC
Assay: NCI tumour cell line growth inhibition, 48 h
Assay metric: TGI (µM)

1. Oc1ccc(O)c(CNc2ccc(C(O)C(F)(F)F)cc2)c1 (stereo not given); 43
2. S=c1[nH]nc(CNc2ccc(-c3n[nH]c(=S)n3-c3ccc(Cl)cc3)cc2)n1-c1ccc(Cl)cc1; 36.6

###

Tested on: OVCAR-3 ovarian
Assay: NCI tumour cell line growth inhibition, 48 h
Assay metric: GI50

1) CCN1C/C(=C\c2cc(OC)c(OC)cc2OC)C(=O)/C(=C/c2cc(OC)c(OC)cc2OC)C1; 2290 nM
2) COc1ccc(C2=N[C@@H](Cc3ccccc3)C(=O)Nc3ccsc32)cc1; 3560 nM
3) CC(=O)Nc1ccc2c(c1)C(c1ccccc1Cl)=Nc1c(n[nH]c1C)N2; 9060 nM
4) O=C(Cc1ccc(/C=C/C(=O)c2ncc[nH]2)cc1)Nc1ccc(F)cc1; 1700 nM

###

Tested on: MOLT-4 leukemia
Assay: NCI tumour cell line growth inhibition, 48 h
Measured TGI values are reported for all entries that follow.
Assay metric: TGI

1) C=CCn1c(-c2ccc([N+](=O)[O-])cc2)cs/c1=N\C(P(=O)(O)O)P(=O)(O)O; > 100 µM
2) CC(C)c1[nH]nc(C(N)=O)c1N=NN(C)C; > 100 µM
3) COc1ccc2c(c1OC)C[C@@H]1c3c(cc4c(c3-2)OCO4)CCN1C; 47.4 µM
4) CC(=O)Nc1ccc(NCC(=O)Nn2cnc3ccc(S(=O)(=O)Nc4ccc(NC(C)=O)cc4)cc3c2=O)cc1; > 100 µM
5) C/C(=C1/N=C(c2cc([N+](=O)[O-])ccc2Cl)N(c2cccc(C)c2)C1=O)c1cc2ccccc2oc1=O; > 100 µM
6) CCCCNC(=O)c1cc2c(cc1Cl)Sc1nccn1S2(=O)=O; > 100 µM
7) CC1=CC(=O)CC(C)(C)C1/C=C/C(C)=C/C=C/C(C)=C/C=C/C=C(C)/C=C/C=C(C)/C=C/C1C(C)=CC(=O)CC1(C)C (stereo not given); > 100 µM
8) Oc1ccc(O)c(CNc2ccc(C(O)C(F)(F)F)cc2)c1 (stereo not given); 29.7 µM
9) NNC(=S)N/N=C(\C(=O)Nc1cccc(O)c1)C1C(=O)NC(=S)NC1=O; > 100 µM
10) CCCCCCCCCCCCCCCCCc1cccc(OCOCCOC)c1C(=O)O; 44.1 µM
11) Cc1ccc(NC(Nc2ccc(C)cc2C)=C(C(Cl)=C(Cl)Cl)[N+](=O)[O-])c(C)c1; 31.2 µM
12) COC(=O)C(C(=O)C(=O)Nc1c(C)cccc1C)c1cnc2ccccc2n1 (stereo not given); > 100 µM
13) Fc1cc2[nH]ncc2c2c3c(c(-c4cn[nH]c4C(F)(F)F)nc12)CCCC3; 3.75 µM
14) COc1ccc(N=N/C(=N/NC(=O)c2ccc(C)cc2)c2ccc(N(CCC#N)CCC#N)cc2OC)cc1; > 100 µM
15) N#Cc1cccc2c1Nc1ccccc1S2; > 100 µM
16) O=C1C2Nc3ccccc3SC2C(=O)N1c1ccc(Br)cc1 (stereo not given); > 100 µM
17) COc1cc(/C=C\c2cc(OC)c(OC)c(OC)c2)cc(N/C=C\C(=O)c2ccc(OC(F)(F)F)cc2)c1OC; > 100 µM
18) CN(C)CCCN1C(=S)N(CCCN(C)C)c2c3ccccc3nc3c([N+](=O)[O-])ccc1c23; > 100 µM
19) Cc1cccc(N(C)C(=O)[C@@H]2[C@H](O)CCN2c2nc(C)cc(C(F)(F)F)c2C#N)c1; 53.8 µM
20) CN1C(=O)CCC1(O)C1C=CC=CC1 (stereo not given); > 100 µM

###

Test system: 786-0 renal
Assay: NCI tumour cell line growth inhibition, 48 h
Assay metric: TGI

1. C=CCN(c1cc(OCc2ccccc2)c2[nH]cc(C)c2c1)S(C)(=O)=O; > 100 µM
2. CC(C)c1[nH]nc(C(N)=O)c1N=NN(C)C; > 100 µM
3. COc1ccccc1NC(=S)NN=C(C)c1cccc(C(C)=NNC(=S)Nc2ccccc2OC)n1; 37.7 µM
4. CC(C)(C)c1ccc(S(=O)(=O)Oc2ccc3c4c(c(=O)oc3c2)CCCCC4)cc1; > 100 µM
5. Oc1ccc(O)c(CNc2ccc(C(O)C(F)(F)F)cc2)c1 (stereo not given); 29 µM
6. COP(=O)(OC)C(=O)N1N(c2ccc([N+](=O)[O-])cc2)C(=O)C(C)NC1(NNc1ccc([N+](=O)[O-])cc1)P(=O)(OC)OC (stereo not given); > 100 µM
7. COc1cc2oc(=O)ccc2cc1C(=O)CC(C)C; > 100 µM
8. CCOC(=O)c1c[nH]c2c(Sc3ccccc3)nccc2c1=O; > 100 µM
9. O=C(CSc1nc2ccc([N+](=O)[O-])cc2s1)c1ccc2ccccc2c1; > 100 µM
10. O=C(NCCCCCCCCCCCCNC(=O)c1cccc2ccccc12)c1cccc2ccccc12; > 71.7 µM
11. CC(=O)c1ccc2c(c1)c1cc(C(C)=O)ccc1n2CCNC(C)C; 3.32 µM
12. Cc1c(N2C(=O)/C(=C/c3ccc(Cl)cc3)N=C2c2ccccc2)c(=O)n(-c2ccccc2)n1C; > 100 µM
13. CC(C)C1=CC(=O)C(C)(C2C(O)CC3(C)C4CC=C5C(CCC(OC6OC(CO)C(O)C(O)C6OC6OC(C)C(O)C(O)C6O)C5(C)C)C4(C)C(=O)CC23C)O1 (stereo not given); > 100 µM
14. O=C(N/C(=C\c1ccc(Cl)cc1)c1nc2ccccc2[nH]1)c1ccccc1; 43.9 µM
15. Cc1cn(C2CC(O)C(COC(=O)c3ccccc3)O2)c(=O)[nH]c1=O (stereo not given); > 100 µM
16. CN1c2ccccc2N(C(=O)c2ccc([N+](=O)[O-])cc2)C(CC(=O)O)c2cccn21 (stereo not given); > 100 µM
17. COC(=O)C(C(=O)C(=O)Nc1c(C)cccc1C)c1cnc2ccccc2n1 (stereo not given); > 100 µM
18. COC(=O)CCC(NC(=S)N/N=C(\C)c1cnc2ccccc2n1)C(=O)OC (stereo not given); > 100 µM
19. COc1ccc(C/C(=N/O)C(=O)NCCc2cc(Br)c(OCCCN(C)C)c(Br)c2)cc1Br; 48.1 µM
20. COc1ccccc1NC(=S)N/N=C/c1c(C)n(C)n(-c2ccccc2)c1=O; > 100 µM
21. COC(=O)/C(C#N)=C(\Nc1ccccc1)N1CCOCC1; > 100 µM
22. O=S(=O)(NCCCNc1nccc(-c2c(-c3ccc(O)cc3)nc3sccn23)n1)c1ccc(F)cc1; > 100 µM
23. COc1ccc(NC(=O)C(=O)c2c(O)c3ccc(O)cc3oc2=O)c([N+](=O)[O-])c1; > 100 µM
24. CCOC(=O)c1cc(C(=O)c2cc(OC)c(OC)c(OC)c2)n2ncccc12; > 100 µM
25. CCCCNC(=O)c1cc2c(cc1Cl)Sc1nccn1S2(=O)=O; > 100 µM
26. COC[C@@H](N=C1NC(=O)/C(=C/c2ccc3ncccc3c2)S1)c1ccccc1; > 25 µM
27. COc1cc2c(cc1OC)[C@@H](Nc1ccc(C#N)cc1)C1COC(=O)[C@@H]1C2c1cc(OC)c(O)c(OC)c1 (stereo not given in full); 2.76 µM
28. CC(C)OP(=O)(OC(C)C)/C(Cl)=N/Nc1ccc([N+](=O)[O-])cc1; > 100 µM
29. Cc1cccc(N(C)C(=O)[C@@H]2[C@H](O)CCN2c2nc(C)cc(C(F)(F)F)c2C#N)c1; 66.9 µM
30. Cc1cc2nc3c4cc(O)ccc4n(CCN(C)C)c3nc2cc1C; 2.42 µM
31. O=Nc1ccc(O)c(=O)cc1; 5.52 µM
32. COC(=O)C(NC(=O)C(CC(=O)OC(C)(C)C)NC(=O)OC(C)(C)C)C(O)c1ccccc1 (stereo not given); > 100 µM
33. COC(=O)C(Cc1cc(OC)c(OC)c(OC)c1)C(=O)OC; > 320 µM
34. CCN1C/C(=C\c2cc(OC)c(OC)cc2OC)C(=O)/C(=C/c2cc(OC)c(OC)cc2OC)C1; 8.09 µM
35. CC(Nc1ncc2c(n1)-c1ccccc1OC2)C(=O)O (stereo not given); > 100 µM
36. O=C1CSC(/C=C/c2ccccc2)N1c1nc2cc3sc(N4C(=O)CSC4/C=C/c4ccccc4)nc3cc2s1 (stereo not given); > 100 µM
37. O=C(O)CN1C=C(C(=O)c2cc3ccccc3n2S(=O)(=O)c2ccccc2)CCC1; > 100 µM
38. COc1cc(C2Cc3ncccc3-c3[nH]c(=O)c4cccnc4c32)cc(OC)c1OC (stereo not given); > 100 µM
39. c1ccc2c(Cc3[nH]c4ccccc4c3Cc3c[nH]c4ccccc34)c[nH]c2c1; 4.25 µM
40. CC(O)(Cc1ccccc1C#N)Cc1ccccc1C#N; > 100 µM

These entries and their values trace back to PubChem BioAssay (NCI).
